Tested on: S. cerevisiae Mot1-301 ts growth rescue, BacTiter-Glo ATP luminescence
Test name: restored Mot1-301 yeast growth at 38.5C – whole organism, S. cerevisiae, Mot1-301 ts mutant, luminescence, dose retest, SUMOylation pathway inhibitor project, confirmation (AID 463204);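 further: growth at restrictive 38.5 degrees C of Mot1-301 OY566 strain; actives raise luminescence by restoring growth of the ts mutant at high temperature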
The source made the active and inactive calls.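 How the source made its calls: active means AC50 no more than ten times the top concentration tested, that is within one log above it; inconclusive means flat curve fit with activity between 30% and 70%, or invalid poor fit; inactive means AC50 beyond ten times the top tested dose.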
Would you mind answering with one of these outcomes? active, inactive

COC(=O)CCC(=O)OC1(C)C(=O)C2=CN(CCc3c[nH]c4ccccc34)C(c3ccc(OC)cc3)=CC2=C(Br)C1=O (stereo not given)
inactive
COC(=O)c1ccncc1C(=O)Nc1ccc(Oc2ncc(C(F)(F)F)cc2Cl)cc1
inactive
Cc1cc(NC(=O)/C=C/c2ccco2)ccc1NC(=O)c1ccccc1
inactive
Cc1ccc(SCC(=O)O/N=C(\N)c2cccc([N+](=O)[O-])c2)cc1
inactive

Answer briefly: the call reported for `CN(C)CCNC(=O)c1scc2c1CCCC2` in this assay.
active

Answer briefly: the call reported for `CN(C)S(=O)(=O)c1cc(NC(=O)CSc2nn(-c3ccc(Cl)cc3)c(=S)s2)ccc1Cl` in this assay.
active

Answer briefly: the call reported for O=C1C2C(c3ccccc3)CC=CC2[C@H](c2ccc3ccccc3c2)N1Cc1ccccc1 (stereo not given in full) in this assay.
active

Answer briefly: the call reported for CN(C)c1ccc(C(=O)N2CCCC(CCC(=O)N3CCN(c4ccccn4)CC3)C2)cc1 (stereo not given) in this assay.
inactive

Answer briefly: the call reported for COc1ccc(S(=O)(=O)N2CCCC2CNC(=O)C(=O)NCc2ccccn2)cc1 (stereo not given) in this assay.
inactive

Answer briefly: the call reported for `CCN1C(=S)N[C@@H](c2cccs2)C(C(=O)OC)=C1C` in this assay.
inactive

---

Test system: S. cerevisiae Mot1-301 ts growth rescue, BacTiter-Glo ATP luminescence
Test name: restored Mot1-301 yeast growth at 38.5C – whole organism, S. cerevisiae, Mot1-301 ts mutant, luminescence, dose retest, SUMOylation pathway inhibitor project, confirmation (AID 463204)
Calls of active or inactive are those of the source.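 The calls were made as follows: active = AC50 no more than ten times the top concentration tested, that is within one log above it; inconclusive = flat curve fit with activity between 30% and 70%, or invalid poor fit; inactive = AC50 beyond ten times the top tested dose.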
Would you mind answering with one of these outcomes? YES for active, NO for inactive

CCN(CC)C(=O)CSc1nnc(CNc2ccc(F)cc2)n1Cc1ccco1
NO
COc1ccc(C)cc1NC(=O)Cn1c(=O)oc2ccccc21
NO
CCCCc1ccc(NC(=S)NCc2cccs2)cc1
YES
COc1cccc(N=Nc2c(=O)[nH]n3c(=O)cc(C)[nH]c23)c1
NO
CC(C)(CNC(=O)c1cccs1)CNC(=O)c1cccs1
NO

Answer briefly: the call reported for `CCOC(=O)C1(CCOc2ccccc2)CCN(Cc2cccc(OC)c2O)CC1` in this assay.
NO

Answer briefly: the call reported for O=C(NCCCN1CCOCC1)C1CCC(=O)N1CCc1ccccc1 (stereo unspecified) in this assay.
NO

Answer briefly: the call reported for CC(C)CCn1c(C(C)O)nc2ccccc21 (stereo unspecified) in this assay.
NO

Answer briefly: the call reported for `Cc1ccc(C(=O)NC(NC(=O)c2ccc(C)cc2)C(Cl)Cl)cc1` in this assay.
NO

Answer briefly: the call reported for N#CC(CC(=O)c1ccc(F)cc1)c1ccc2c(c1)OCO2 (stereo unspecified) in this assay.
YES

Answer briefly: the call reported for CCN(CC)C(=O)C1CCCN(c2ccc([N+](=O)[O-])cc2/C=N/NC(=O)c2cccc(Br)c2)C1 (stereo unspecified) in this assay.
NO

---

Test system: S. cerevisiae Mot1-301 ts growth rescue, BacTiter-Glo ATP luminescence
Test name: restored Mot1-301 yeast growth at 38.5C – whole organism, S. cerevisiae, Mot1-301 ts mutant, luminescence, dose retest, SUMOylation pathway inhibitor project, confirmation (AID 463204)
The source made the active and inactive calls.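 How the source made its calls: active means AC50 no more than ten times the top concentration tested, that is within one log above it; inconclusive means flat curve fit with activity between 30% and 70%, or invalid poor fit; inactive means AC50 beyond ten times the top tested dose.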
Would you mind answering with one of these outcomes? active, inactive

Example entries and their recorded answers appear below.
COc1cccc(-n2c(Cc3cc(=O)[nH]c(=O)[nH]3)nnc2SCc2cccnc2)c1
inactive
CCOc1ccccc1C(=O)N(Cc1cccs1)C1CCS(=O)(=O)C1 (configuration not stated)
inactive
CCOC(=O)NNC(=O)CCn1c2c(c3ccccc31)CCCC2
inactive
O=C(CSc1nnc(CNC(=O)c2ccccc2F)o1)NCCc1ccccc1
inactive
COc1ccc(-c2cc(C(F)(F)F)n3ncc(C(=O)O)c3n2)cc1OC
inactive
CCCc1nc(NCc2ccccc2)c(C#N)c2c1CCCC2
inactive
Clc1ccc(N=c2ssnc2Cl)nc1
active
CC(NC(=O)C1CCCN(S(=O)(=O)N2CCOCC2)C1)c1ccccc1 (configuration not stated)
inactive
CCN(C(=O)Cn1c(=O)oc2ccccc21)c1cccc(C)c1
inactive
Cc1cc([N+](=O)[O-])ccc1NC(=O)CSc1nccc(=O)[nH]1
inactive

Answer briefly: the call reported for Cc1cc(NC(=O)CCC(=O)N(c2cccnc2)C(C(=O)NC2CCCC2)c2ccccc2)no1 (configuration not stated) in this assay.
inactive

Answer briefly: the call reported for `O=C(COc1cnc2ccccc2n1)NCCC1=CCCCC1` in this assay.
inactive

Answer briefly: the call reported for Cc1ccc(C(=O)NC(Cc2c[nH]c3ccccc23)C(=O)O)o1 (configuration not stated) in this assay.
inactive

Answer briefly: the call reported for `COc1cccc(/C=C/C(=O)OCC(=O)Nc2ccc(Cl)cn2)c1` in this assay.
inactive

Answer briefly: the call reported for `Cc1cccc(NS(=O)(=O)c2ccc3[nH]c(=O)cc(C(=O)O)c3c2)c1` in this assay.
inactive

Answer briefly: the call reported for `Cc1ccc(S(=O)(=O)Oc2ccc(/C=C3\N=C(c4cccc(C)c4)OC3=O)cc2)cc1` in this assay.
inactive

Answer briefly: the call reported for `O=C(N/N=C/c1ccccc1)c1[nH]c2ccc(Br)cc2c1-c1ccccc1` in this assay.
inactive

Answer briefly: the call reported for `O=C(/C=C/c1ccc(Cl)cc1)NCc1ccncc1` in this assay.
inactive

---

Test system: S. cerevisiae Mot1-301 ts growth rescue, BacTiter-Glo ATP luminescence
Test name: restored Mot1-301 yeast growth at 38.5C – whole organism, S. cerevisiae, Mot1-301 ts mutant, luminescence, dose retest, SUMOylation pathway inhibitor project, confirmation (AID 463204);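 further: growth at restrictive 38.5 degrees C of Mot1-301 OY566 strain; actives raise luminescence by restoring growth of the ts mutant at high temperature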
Activity calls are given as the source filed them.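 How the source made its calls: active means AC50 no more than ten times the top concentration tested, that is within one log above it; inconclusive means flat curve fit with activity between 30% and 70%, or invalid poor fit; inactive means AC50 beyond ten times the top tested dose.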
Would you mind answering with one of these outcomes? 1 (yes) = active, 0 (no) = inactive

CCOC(=O)N1CCN(c2nnnn2-c2ccccc2)CC1
0 (no)

Answer briefly: the call reported for `CCOC(=O)c1c(C)[nH]c(C(=O)COC(=O)c2ccncc2)c1C` in this assay.
0 (no)

Answer briefly: the call reported for `CS(=O)(=O)Nc1ccccc1C(=O)NCCSCc1ccccc1` in this assay.
0 (no)

Answer briefly: the call reported for `Cn1c(CN2CCOCC2)nnc1SCC(N)=O` in this assay.
0 (no)

Answer briefly: the call reported for `CC(=O)Nc1ccc(S(=O)(=O)Nc2ccc(S(=O)(=O)Nc3ncccn3)cc2)cc1` in this assay.
0 (no)

---

Test system: S. cerevisiae Mot1-301 ts growth rescue, BacTiter-Glo ATP luminescence
Test name: restored Mot1-301 yeast growth at 38.5C – whole organism, S. cerevisiae, Mot1-301 ts mutant, luminescence, dose retest, SUMOylation pathway inhibitor project, confirmation (AID 463204);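 further: growth at restrictive 38.5 degrees C of Mot1-301 OY566 strain; actives raise luminescence by restoring growth of the ts mutant at high temperature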
The source made the active and inactive calls.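 Rule for the calls: active = AC50 no more than ten times the top concentration tested, that is within one log above it; inconclusive = flat curve fit with activity between 30% and 70%, or invalid poor fit; inactive = AC50 beyond ten times the top tested dose.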
Measured metric: AC50

O=C(COC(=O)CSc1ccc([N+](=O)[O-])cc1)NC1CCCCCCC1
> 42 µM (inactive)
O=C(NCCNc1ccc(Cl)cc1[N+](=O)[O-])c1ccccc1F
> 42 µM (inactive)
c1ccc(OCCCc2nc(-c3cccnc3)no2)cc1
> 42 µM (inactive)

Dear colleague, please send me the reported AC50 for `Nn1c(SCc2cc([N+](=O)[O-])cc3c2OCOC3)nnc1-c1ccccn1` when you can.
> 42 µM (inactive)

Dear colleague, please send me the reported AC50 for `O=C(OCC(=O)N1CCN(c2ccccc2)CC1)c1nc(Cl)ccc1Cl` when you can.
> 42 µM (inactive)

Dear colleague, please send me the reported AC50 for `C(=N\Nc1ccc2nncn2n1)/c1ccccn1` when you can.
> 42 µM (inactive)

Dear colleague, please send me the reported AC50 for `CCCSc1nc(=O)n2cccc(C)c2n1` when you can.
> 42 µM (inactive)

Dear colleague, please send me the reported AC50 for `CN(C)/C=N/NC(=O)c1ccccc1` when you can.
> 42 µM (inactive)

Dear colleague, please send me the reported AC50 for `COC(=O)c1cc(Cl)c(NC(=O)C(C)C)cc1OC` when you can.
> 42 µM (inactive)

Dear colleague, please send me the reported AC50 for `O=S(=O)(Cc1ccccc1)N1CCN(c2ccccc2)CC1` when you can.
> 42 µM (inactive)

Dear colleague, please send me the reported AC50 for `COc1ccccc1C(=O)NC(=O)COC(=O)Cc1ccccc1[N+](=O)[O-]` when you can.
> 42 µM (inactive)

Dear colleague, please send me the reported AC50 for `CN(C)/C(CN1CCCCC1)=C1\N=C(c2ccccc2)OC1=O` when you can.
> 42 µM (inactive)

---

System: S. cerevisiae Mot1-301 ts growth rescue, BacTiter-Glo ATP luminescence
Test name: restored Mot1-301 yeast growth at 38.5C – whole organism, S. cerevisiae, Mot1-301 ts mutant, luminescence, dose retest, SUMOylation pathway inhibitor project, confirmation (AID 463204);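 further: growth at restrictive 38.5 degrees C of Mot1-301 OY566 strain; actives raise luminescence by restoring growth of the ts mutant at high temperature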
The source made the active and inactive calls.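 Rule for the calls: active = AC50 no more than ten times the top concentration tested, that is within one log above it; inconclusive = flat curve fit with activity between 30% and 70%, or invalid poor fit; inactive = AC50 beyond ten times the top tested dose.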
Would you mind answering with one of these outcomes? True (active), False (inactive)

Example entries and their recorded answers appear below.
CCC(CC)NC(=O)c1oc2ccccc2c1COc1ccccc1
False
CC(=O)c1cccc(NC(=O)CNC(=O)c2sc3ccccc3c2Cl)c1
False
O=S(=O)(Nc1ccc(N2CCOCC2)cc1)c1cccs1
False
COC(=O)c1cn(C(=O)c2cccc3ccccc23)c2ccccc12
False
Cc1ccc(Oc2ccc(OCC(=O)Nc3ccncc3)cc2)cc1
True

Answer briefly: the call reported for `O=C(NC1CCCCC1)c1n[nH]c2c1CCCCC2` in this assay.
False

Answer briefly: the call reported for `CCOc1ccc(S(=O)(=O)N2CCC(C(=O)N3CCN(c4ccccc4)CC3)CC2)cc1` in this assay.
False

Answer briefly: the call reported for `N#CCCN(C(=O)COC(=O)c1ccc(S(=O)(=O)Nc2ccccc2)cc1)c1ccccc1` in this assay.
False

Answer briefly: the call reported for `CC(=O)c1ccc(Oc2cc(C)nc(N3CCOCC3)n2)cc1` in this assay.
False

Answer briefly: the call reported for `COc1ccccc1NC(=O)COC(=O)CC(C)(C)CC1=NS(=O)(=O)c2ccccc2N1` in this assay.
False

Answer briefly: the call reported for CCOC(=O)C1C(=O)NC(SCC(=O)Nc2nccs2)=C(C#N)C1c1ccccc1OCC (configuration not stated) in this assay.
False

Answer briefly: the call reported for `COc1cc([N+](=O)[O-])cc(/C=N/NC(=O)c2cc(C)nc3ccccc23)c1O` in this assay.
False

Answer briefly: the call reported for O=C(COC(=O)C1CC(=O)N(Cc2ccccc2)C1)Nc1ccccc1F (configuration not stated) in this assay.
False

Answer briefly: the call reported for `CCn1c(SCC(=O)N/N=C/c2ccccc2OCC(=O)O)nnc1-c1ccc(C(C)(C)C)cc1` in this assay.
True

Answer briefly: the call reported for `COc1ccc(N2CCN(C(=O)Cn3nnc(-c4ccc(OC)c(OC)c4)n3)CC2)cc1` in this assay.
False

Answer briefly: the call reported for `CCOc1ncccc1C(=O)OCC(=O)N(CC)c1ccccc1` in this assay.
False

Answer briefly: the call reported for `COc1ccc(/C=C/C(=O)N2CCC(C(N)=O)CC2)cc1S(=O)(=O)N1CCOCC1` in this assay.
False

Answer briefly: the call reported for `COc1c(C)cc(S(=O)(=O)NC2CC(C)(C)NC(C)(C)C2)c(C)c1C` in this assay.
False

Answer briefly: the call reported for `Cc1cc(N2CCN(C)CC2)nc2ccc(NC(=S)N3CCC4(CC3)OCCO4)cc12` in this assay.
False

Answer briefly: the call reported for `Cc1ccc(NC(=O)CSCC(=O)Nc2ccccc2N2CCCC2)cc1` in this assay.
False

Answer briefly: the call reported for `CCCCCCCCc1nc(SCC(C)=O)n[nH]1` in this assay.
False

Answer briefly: the call reported for `NNC(=O)c1oc2nc(-c3ccccc3)cc(-c3ccccc3)c2c1N` in this assay.
False
